target: Glycogen synthase kinase-3 beta (Homo sapiens); test: blockers of GSK3B enzyme activity – biochemical, cell-free homogeneous, HTS, primary screen (AID 2097); settings: GST-GSK3beta kinase, ADP-Glo luminescence, 60 min; at 10 µM; hits give low values;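 also: 0% = median DMSO wells and -100% = median GW8510 positive control wells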
Hit rate of the full screen: of about 300,000 compounds, about 120 (0.04%) were called active. The list comes from a sample in which actives are over-represented; it also holds close analogues and randomly drawn compounds.
activity score (negative = inhibition) reference
quantityName: activity score (negative = inhibition) (%)

> print(dat)
                                    compound  readoutunit  experimentalvalue
 1  C=CCc1cccc(/C=N/NC(=O)COc2ccc(-n3cnnn3)cc2)c1O            %               -4.1
 2  COc1ccc(Cl)cc1NC(=O)CN(C)C(=O)CCCc1c[nH]c2ccccc12            %             -0.853
 3  COC(=O)Nc1ccc(S(=O)(=O)N2CCN(CCN3C(=O)C4C5C=CC(C5)C4C3=O)CC2)cc1 (stereo not given)            %              -3.94
 4  COC(=O)c1ccc2c(C(C)(C)O)c(C(C)(C)O)[nH]c2c1            %              0.923
 5  O=C(CCN1C(=O)C2C3C=CC(C3)C2C1=O)Oc1ccc2ccccc2c1 (stereo not given)            %               1.85
 6  COC(=O)/C(=C\Nc1ccccc1)NC(=O)c1ccc(Cl)cc1Cl            %               1.73
 7   COc1ccc(S(=O)(=O)NCCCCOc2ccc(Cl)cc2)cc1            %             -0.131
 8  O=C(N/N=C/c1cccc(O)c1)c1cc2c(ccc3ccccc32)o1            %              -3.92
 9  COc1cc(C(=O)NCc2nnc(SCC(=O)Nc3nc4ccc(C)cc4s3)o2)cc(OC)c1OC            %              -2.02
10  CC1CC2=C(CC1/C=N/NC(N)=S)C(C)(C)CCC2 (stereo not given)            %              -1.32
